- test_system: IKBKB (IKK beta) (Homo sapiens, UniProt O14920)
- Sequence (O14920 whole entry, species assumed): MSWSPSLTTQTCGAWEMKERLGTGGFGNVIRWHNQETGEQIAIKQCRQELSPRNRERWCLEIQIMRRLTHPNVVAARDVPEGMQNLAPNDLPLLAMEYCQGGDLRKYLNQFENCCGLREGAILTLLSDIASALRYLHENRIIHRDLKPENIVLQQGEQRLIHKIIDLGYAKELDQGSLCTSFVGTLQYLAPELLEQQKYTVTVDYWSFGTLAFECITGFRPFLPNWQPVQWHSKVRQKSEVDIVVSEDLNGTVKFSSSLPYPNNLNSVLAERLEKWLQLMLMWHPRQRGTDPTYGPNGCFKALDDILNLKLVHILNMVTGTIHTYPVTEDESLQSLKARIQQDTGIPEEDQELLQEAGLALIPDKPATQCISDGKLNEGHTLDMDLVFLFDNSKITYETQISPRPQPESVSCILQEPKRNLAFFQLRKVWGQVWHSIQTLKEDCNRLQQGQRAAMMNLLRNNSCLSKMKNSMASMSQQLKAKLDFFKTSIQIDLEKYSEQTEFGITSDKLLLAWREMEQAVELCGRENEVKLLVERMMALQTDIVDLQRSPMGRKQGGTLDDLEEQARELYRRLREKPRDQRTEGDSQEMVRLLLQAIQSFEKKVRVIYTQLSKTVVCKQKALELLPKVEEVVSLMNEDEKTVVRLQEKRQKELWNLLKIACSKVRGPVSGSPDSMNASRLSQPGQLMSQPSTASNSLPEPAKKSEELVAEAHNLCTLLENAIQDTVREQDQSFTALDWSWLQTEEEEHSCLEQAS
- test_name: FRET-based coupled-enzyme protein kinase inhibition assay
- Format: biochemical
- condition_set: compound at 10 µM, 1% DMSO
- Description: A biochemical assay was then performed in order to measure the protein kinase inhibition. It employed a fluorescence-based coupled-enzyme format and was based on the differential sensitivity of phosphorylated and non-phosphorylated peptides to proteolytic cleavage. […] A significant benefit of this ratiometric method for quantitating reaction progress is the elimination of well-to-well variations in FRET-peptide concentration and signal intensities. […]
Parameter inhibition at 10 µM: see the listing below.
property: inhibition at 10 µM (%)

[
  {
    "smiles_representation": "C[C@@H](NC(=O)OC[C@H]1O[C@@H](n2cnc3c(N)ncnc32)[C@H](O)[C@@H]1O)c1ccc(Cl)cc1",
    "property": "inhibition at 10 µM",
    "result_number": -6
  },
  {
    "smiles_representation": "Nc1ncnc2c1ncn2[C@@H]1O[C@H](COC(=O)NC[C@H](O)CO)[C@@H](O)[C@H]1O",
    "property": "inhibition at 10 µM",
    "result_number": -6
  },
  {
    "smiles_representation": "CS(=O)(=O)N1CC2(CCN(C(=O)OC[C@H]3O[C@@H](n4cnc5c(N)ncnc54)[C@H](O)[C@@H]3O)CC2)c2ccccc21",
    "property": "inhibition at 10 µM",
    "result_number": -8
  },
  {
    "smiles_representation": "N#CCCN1CCN(C(=O)OC[C@H]2O[C@@H](n3cnc4c(N)ncnc43)[C@H](O)[C@@H]2O)CC1",
    "property": "inhibition at 10 µM",
    "result_number": -12
  },
  {
    "smiles_representation": "Nc1ncnc2c1ncn2[C@@H]1O[C@H](COC(=O)NCCN2CCCC2=O)[C@@H](O)[C@H]1O",
    "property": "inhibition at 10 µM",
    "result_number": -13
  },
  {
    "smiles_representation": "Nc1ncnc2c1ncn2[C@@H]1O[C@H](COC(=O)NCCCc2nc3ccccc3[nH]2)[C@@H](O)[C@H]1O",
    "property": "inhibition at 10 µM",
    "result_number": -10
  },
  {
    "smiles_representation": "CN1CCN(CCNC(=O)OC[C@H]2O[C@@H](n3cnc4c(N)ncnc43)[C@H](O)[C@@H]2O)CC1",
    "property": "inhibition at 10 µM",
    "result_number": -3
  }
]
